Values from ChEMBL document CHEMBL1158444

# targetOrTestSystem: UniProt P31423
# Sequence (P31423 whole entry): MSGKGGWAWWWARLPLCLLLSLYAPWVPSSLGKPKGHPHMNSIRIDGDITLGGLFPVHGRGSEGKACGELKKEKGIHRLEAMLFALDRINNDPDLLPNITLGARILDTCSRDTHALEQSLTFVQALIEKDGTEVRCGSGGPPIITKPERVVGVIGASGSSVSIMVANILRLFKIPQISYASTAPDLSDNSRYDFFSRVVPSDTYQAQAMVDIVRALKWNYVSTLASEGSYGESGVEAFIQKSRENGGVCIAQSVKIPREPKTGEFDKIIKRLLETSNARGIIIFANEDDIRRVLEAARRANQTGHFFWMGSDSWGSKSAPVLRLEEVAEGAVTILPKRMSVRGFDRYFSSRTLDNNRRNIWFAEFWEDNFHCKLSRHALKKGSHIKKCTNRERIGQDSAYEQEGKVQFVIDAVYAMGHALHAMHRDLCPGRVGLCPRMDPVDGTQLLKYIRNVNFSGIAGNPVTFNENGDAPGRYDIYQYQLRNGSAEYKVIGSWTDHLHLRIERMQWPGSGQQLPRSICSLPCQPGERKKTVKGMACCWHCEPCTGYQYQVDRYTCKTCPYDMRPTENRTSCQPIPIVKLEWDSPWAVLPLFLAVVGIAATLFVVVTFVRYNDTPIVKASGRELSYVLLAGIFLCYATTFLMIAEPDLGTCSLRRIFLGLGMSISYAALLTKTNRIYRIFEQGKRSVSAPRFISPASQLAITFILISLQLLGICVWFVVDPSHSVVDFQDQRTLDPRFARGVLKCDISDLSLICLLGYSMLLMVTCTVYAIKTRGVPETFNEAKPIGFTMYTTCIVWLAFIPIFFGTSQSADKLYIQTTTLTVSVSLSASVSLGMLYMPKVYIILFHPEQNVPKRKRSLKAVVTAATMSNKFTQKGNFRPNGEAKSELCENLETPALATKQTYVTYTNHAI
# assayExplanation: Activity at rat mGluR4 receptor expressed in HEK293 cells assessed as effect on thallium flux
Items are presented alongside their recorded pEC50.
FYI, pEC50 means -log10 of a concentration in mol per litre.

Solved entries:
{"structureString": "O=C(Nc1ccc(F)c(C(F)(F)F)c1)c1ccccn1", "measuredNumber": 6.00}
{"structureString": "COc1ccc(NC(=O)c2ccccn2)cc1OC", "measuredNumber": 5.62}
{"structureString": "COc1ccc(NC(=O)c2ccccn2)cc1Cl", "measuredNumber": 6.13}
{"structureString": "O=C(Nc1cccc(Cl)c1)c1ccccn1", "measuredNumber": 6.54}
{"structureString": "O=C(Nc1ccccc1)[C@]12C[C@H]1/C(=N\\O)c1ccccc1O2", "measuredNumber": 5.69}

Task: Need pEC50 of COc1cc(NC(=O)c2ccccn2)ccc1F , thanks.
Output: 6.43

Task: // query pEC50 value for entry O=C(Nc1ccc(Cl)c(C(F)(F)F)c1)c1ccccn1
Output: 5.77

Task: pEC50 lookup needed for COc1cc(NC(=O)c2ccccn2)ccc1C , thanks.
Output: 6.68

Task: // pEC50 lookup, key: O=C(Nc1ccc2c(c1)OCO2)c1ccccn1
Output: 6.30
